- system.under.test: recombinant purified human JAK2 (Homo sapiens (Human), UniProt O60674)
- Sequence (O60674 whole entry): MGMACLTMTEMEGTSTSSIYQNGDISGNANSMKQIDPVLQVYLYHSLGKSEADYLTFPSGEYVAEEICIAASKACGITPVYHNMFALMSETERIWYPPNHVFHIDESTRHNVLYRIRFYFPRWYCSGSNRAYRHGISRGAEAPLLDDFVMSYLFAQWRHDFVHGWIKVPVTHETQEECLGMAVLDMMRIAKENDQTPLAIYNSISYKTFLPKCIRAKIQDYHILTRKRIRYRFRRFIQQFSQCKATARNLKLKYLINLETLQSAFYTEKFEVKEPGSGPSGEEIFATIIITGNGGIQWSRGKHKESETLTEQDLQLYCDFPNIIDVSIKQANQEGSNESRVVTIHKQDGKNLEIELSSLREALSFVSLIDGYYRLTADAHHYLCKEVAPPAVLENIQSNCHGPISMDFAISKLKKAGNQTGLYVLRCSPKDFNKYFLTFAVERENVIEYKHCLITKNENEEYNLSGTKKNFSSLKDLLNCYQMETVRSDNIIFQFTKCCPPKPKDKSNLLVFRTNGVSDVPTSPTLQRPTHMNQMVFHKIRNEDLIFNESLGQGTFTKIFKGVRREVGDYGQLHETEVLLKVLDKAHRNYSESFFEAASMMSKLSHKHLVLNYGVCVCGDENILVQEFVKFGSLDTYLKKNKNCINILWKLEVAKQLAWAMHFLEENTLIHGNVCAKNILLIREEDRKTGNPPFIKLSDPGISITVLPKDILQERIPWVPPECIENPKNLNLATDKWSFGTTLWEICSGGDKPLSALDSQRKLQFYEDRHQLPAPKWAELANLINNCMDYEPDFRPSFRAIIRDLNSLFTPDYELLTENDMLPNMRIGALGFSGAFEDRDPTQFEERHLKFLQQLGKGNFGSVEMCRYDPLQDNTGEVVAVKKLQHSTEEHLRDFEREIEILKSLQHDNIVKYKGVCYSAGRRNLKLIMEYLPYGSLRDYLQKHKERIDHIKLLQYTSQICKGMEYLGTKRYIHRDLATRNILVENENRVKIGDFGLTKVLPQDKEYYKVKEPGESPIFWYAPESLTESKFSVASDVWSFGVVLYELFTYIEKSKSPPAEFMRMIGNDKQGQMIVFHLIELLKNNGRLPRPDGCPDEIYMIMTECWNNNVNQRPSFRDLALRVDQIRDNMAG
- assay.text: in vitro JAK kinase assay on ADP Glo platform, JAK2
- condition.notes: 50 μM ATP, 1 hr at room temperature; read-out: JAK-2 IC50
quantity.name: pIC50
FYI, pIC50 means -log10 of a concentration in mol per litre.

Worked set:
The molecule COc1nnc(C2CCN(c3ccc(Nc4nccc(-c5ccc(C(=O)NCC#N)cc5)n4)cc3)CC2)o1 [Example 31] on recombinant purified human JAK2 (Homo sapiens (Human), UniProt O60674): pIC50 was 7.77

The molecule N#CCNC(=O)c1ccc(-c2ccnc(Nc3ccc(N4CCC(N5CC6OCCOC6C5)CC4)cc3)n2)cc1 (stereo not drawn) [Example 27] on recombinant purified human JAK2 (Homo sapiens (Human), UniProt O60674): pIC50 was 8.30

Shift focus to the following entry.
The molecule N#CCNC(=O)c1ccc(-c2ccnc(Nc3ccc(N4CCC(N5CCCC5)C4)cc3)n2)cc1 (stereo not drawn) [Example 6] on recombinant purified human JAK2 (Homo sapiens (Human), UniProt O60674): pIC50 was 7.72

* * *

- system.under.test: recombinant purified human JAK1 (Homo sapiens (Human), UniProt P23458)
- Sequence (P23458 whole entry): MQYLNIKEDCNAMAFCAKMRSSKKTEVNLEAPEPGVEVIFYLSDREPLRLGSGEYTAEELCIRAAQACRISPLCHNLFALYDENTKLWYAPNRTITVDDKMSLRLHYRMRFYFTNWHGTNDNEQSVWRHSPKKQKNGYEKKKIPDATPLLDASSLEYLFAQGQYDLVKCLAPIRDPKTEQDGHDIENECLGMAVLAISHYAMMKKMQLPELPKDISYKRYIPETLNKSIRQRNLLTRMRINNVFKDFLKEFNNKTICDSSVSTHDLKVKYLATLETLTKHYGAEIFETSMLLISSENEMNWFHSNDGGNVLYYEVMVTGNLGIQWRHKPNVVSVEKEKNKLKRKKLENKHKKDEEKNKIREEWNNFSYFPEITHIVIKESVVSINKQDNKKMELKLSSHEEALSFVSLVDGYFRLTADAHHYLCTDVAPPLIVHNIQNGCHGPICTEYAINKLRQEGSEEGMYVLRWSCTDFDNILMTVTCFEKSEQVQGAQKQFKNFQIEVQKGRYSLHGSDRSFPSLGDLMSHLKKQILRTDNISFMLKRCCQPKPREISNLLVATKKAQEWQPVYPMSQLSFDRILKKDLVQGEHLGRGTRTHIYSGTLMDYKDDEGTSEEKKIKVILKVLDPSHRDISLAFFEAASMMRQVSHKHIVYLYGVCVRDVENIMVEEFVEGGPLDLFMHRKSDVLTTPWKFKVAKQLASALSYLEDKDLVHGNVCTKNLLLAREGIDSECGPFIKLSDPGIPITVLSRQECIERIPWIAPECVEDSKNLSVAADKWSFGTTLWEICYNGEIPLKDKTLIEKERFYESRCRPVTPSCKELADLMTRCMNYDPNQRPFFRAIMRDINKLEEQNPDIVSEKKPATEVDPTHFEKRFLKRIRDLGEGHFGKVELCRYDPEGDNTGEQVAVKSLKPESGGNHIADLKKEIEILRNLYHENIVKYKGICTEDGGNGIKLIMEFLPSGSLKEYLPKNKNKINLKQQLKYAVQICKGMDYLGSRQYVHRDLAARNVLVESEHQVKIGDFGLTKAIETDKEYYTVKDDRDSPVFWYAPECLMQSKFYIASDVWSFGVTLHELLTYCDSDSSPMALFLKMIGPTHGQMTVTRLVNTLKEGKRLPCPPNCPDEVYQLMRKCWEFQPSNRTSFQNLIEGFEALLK
- assay.text: in vitro JAK kinase assay on ADP Glo platform, JAK1
- condition.notes: 50 μM ATP, 1 hr at room temperature
Below is a list of entries, each paired with its recorded IC50 value.
Answer with the number, then the unit.

Value of IC50 reported for the compound N#CCNC(=O)c1ccc(-c2ccnc(Nc3ccc(N4CCN(C5CCS(=O)(=O)CC5)CC4)cc3)n2)cc1 [Example 7] is 14 nM

Value of IC50 reported for the compound Cc1nnc(C2CCN(c3ccc(Nc4nccc(-c5ccc(C(=O)NCC#N)cc5)n4)cc3)CC2)o1 [Example 25] is 12 nM

Value of IC50 reported for the compound N#CCNC(=O)c1ccc(-c2ccnc(Nc3ccc(N4CCC(N5CCC6(CCC(=O)O6)CC5)CC4)cc3)n2)cc1 [Example 28] is 11 nM

Value of IC50 reported for the compound N#CCNC(=O)c1ccc(-c2ccnc(Nc3ccc(N4CCC(N5CCCC5=O)CC4)cc3)n2)cc1 [Example 1] is 12.1 nM

Shift focus to the following entry.
Value of IC50 reported for the compound N#CCNC(=O)c1ccc(-c2ccnc(Nc3ccc(N4CCC(N5CCCC5)C4)cc3)n2)cc1 (stereo not drawn) [Example 6] is 16 nM

* * *

Below is a list of entries, each paired with its recorded IC50 value.
- system.under.test: recombinant purified human JAK1 (Homo sapiens (Human))
- assay.text: in vitro JAK kinase assay on ADP Glo platform, JAK1
- condition.notes: 50 μM ATP, 1 hr at room temperature
- Description: NCEs were screened using in vitro JAK (1, 2 and 3) kinase assay on ADP Glo platform (Promega). […] This was followed by addition of kinase detection reagent (50 μl per reaction) and incubation at room temperature for 30 min. Finally, plate was read for luminescence at an integration time of 500 millisecond per well. Data were plotted taking Enzyme with no inhibitor set as the 100% kinase activity. IC50 values were calculated using Graph Pad Prism software.

Worked set:
Value of IC50 reported for the compound CC(=O)N1C2CC1CN(C1CCN(c3ccc(Nc4nccc(-c5ccc(C(=O)NCC#N)cc5)n4)cc3)CC1)C2 [Example 39] is 8.8 nM

Value of IC50 reported for the compound Cc1nnc(N2CCN(c3ccc(Nc4nccc(-c5ccc(C(=O)NCC#N)cc5)n4)cc3)CC2)o1 [Example 36] is 9.2 nM

Value of IC50 reported for the compound N#CCNC(=O)c1ccc(-c2ccnc(Nc3ccc(N4CCC(N5CC6OCCOC6C5)C4)cc3)n2)cc1 (stereo not shown) [Example 35] is 15 nM

Value of IC50 reported for the compound N#CCNC(=O)c1ccc(-c2ccnc(Nc3ccc(N4CCN(C5CCS(=O)(=O)C5)CC4)cc3)n2)cc1 (stereo not shown) [Example 9] is 14 nM

Value of IC50 reported for the compound N#CCNC(=O)c1ccc(-c2ccnc(Nc3ccc(N4CCC(N5CCNC5=O)CC4)cc3)n2)cc1 [Example 18] is 9 nM

Value of IC50 reported for the compound N#CCNC(=O)c1ccc(-c2ccnc(Nc3ccc(N4CCC(N5CC6OCCOC6C5)CC4)cc3)n2)cc1 (stereo not shown) [Example 27] is 10 nM

Others:
Value of IC50 reported for the compound N#CCNC(=O)c1ccc(-c2ccnc(Nc3ccc(N4CCN(C5CCOCC5)CC4)cc3)n2)cc1 [Example 15] is 16 nM

Value of IC50 reported for the compound N#CCNC(=O)c1ccc(-c2ccnc(Nc3ccc(N4CCC(c5n[nH]c(=O)o5)CC4)cc3)n2)cc1 [Example 29] is 15 nM

Value of IC50 reported for the compound N#CCNC(=O)c1ccc(-c2ccnc(Nc3ccc(N4CCC(c5nnco5)CC4)cc3)n2)cc1 [Example 19] is 10 nM

Value of IC50 reported for the compound N#CCNC(=O)c1ccc(-c2ccnc(Nc3ccc(N4CCC(N5CC6CC(C5)O6)CC4)cc3)n2)cc1 [Example 17] is 13 nM
